Where do the numbers come from? From patent US20210246204A1.

- STUDY_SYSTEM: human Siglec-7 on primary human monocyte-derived dendritic cells (human, UniProt Q9Y286 19-467)
- Sequence (Q9Y286 19-467): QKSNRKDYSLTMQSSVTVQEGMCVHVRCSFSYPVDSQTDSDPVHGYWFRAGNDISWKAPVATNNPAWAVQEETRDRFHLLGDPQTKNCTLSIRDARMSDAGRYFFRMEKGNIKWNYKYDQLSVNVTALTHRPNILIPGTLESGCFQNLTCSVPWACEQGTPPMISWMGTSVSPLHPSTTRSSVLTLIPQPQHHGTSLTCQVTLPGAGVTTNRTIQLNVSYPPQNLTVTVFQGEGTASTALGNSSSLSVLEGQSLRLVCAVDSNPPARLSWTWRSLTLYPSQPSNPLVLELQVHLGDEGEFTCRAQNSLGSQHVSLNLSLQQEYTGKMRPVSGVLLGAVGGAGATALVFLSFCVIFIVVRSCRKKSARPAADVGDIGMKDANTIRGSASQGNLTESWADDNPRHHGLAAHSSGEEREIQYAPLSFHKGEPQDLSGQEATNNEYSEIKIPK
- METHOD_DESCRIPTION: cell-based or functional assay
Strictly below 7% in Maximal downregulation (% Siglec-7 remaining): true. Otherwise: false.

## Task Consider S7AB-H8.21 (antibody, V domains shown) VH: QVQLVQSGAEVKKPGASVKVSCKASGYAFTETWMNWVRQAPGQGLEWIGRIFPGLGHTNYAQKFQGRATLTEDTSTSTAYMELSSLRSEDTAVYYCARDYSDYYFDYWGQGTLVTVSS VL: DIQMTQSPSSLSASVGDRVTITCRASEDINTYLNWYQQKPGKAPKLLIYYTSRLHSGVPSRFSGSGSGTDYTLTISSLQPEDFATYYCQQGGTLPWTFGQGTKLEIK . Does its Maximal downregulation (% Siglec-7 remaining) lie strictly below 7%?
## Result false

## Task Please determine if S7AB-H8.24 (antibody, V domains shown) VH: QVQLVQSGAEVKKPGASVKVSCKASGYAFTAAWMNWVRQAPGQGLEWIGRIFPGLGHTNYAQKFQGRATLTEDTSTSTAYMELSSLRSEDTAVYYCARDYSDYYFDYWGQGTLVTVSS VL: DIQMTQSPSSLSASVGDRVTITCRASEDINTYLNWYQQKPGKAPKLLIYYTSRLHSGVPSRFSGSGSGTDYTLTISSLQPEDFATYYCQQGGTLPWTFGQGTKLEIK is below 7% in terms of Maximal downregulation (% Siglec-7 remaining).
## Result true

## Task Please determine if S7AB chimeric antibody (antibody, V domains shown) VH: QVHLQQSGPELVKPGASVKISCKASGYAFTNCWMNWVRQRPGKGLDWIGRIFPGNGHTNYSGKFKDKATLTEDKSSSTAYMQLSSLTSEDSAVYFCARDYSDYYFDYWGQGTTLTVSS VL: DVQMTQTTSSLSASLGDRVTISCRASQDINTYLNWYQQKPDGTVKLLIYYTSRLHSGVPSRFSGSGSGTDYSLTISNLEQEDIATYFCQQGNTLPWTFGGGTKLEIK is below 7% in terms of Maximal downregulation (% Siglec-7 remaining).
## Result false

## Task Find out if reported Maximal downregulation (% Siglec-7 remaining) for S7AB-H8.19 (antibody, V domains shown) VH: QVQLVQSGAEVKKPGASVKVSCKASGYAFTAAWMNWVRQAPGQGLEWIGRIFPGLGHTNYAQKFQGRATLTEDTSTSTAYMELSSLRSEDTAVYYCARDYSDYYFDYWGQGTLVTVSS VL: DIQMTQSPSSLSASVGDRVTITCRGSQDTNTYLNWYQQKPGKAPKLLIYYTSRLHSGVPSRFSGSGSGTDYTLTISSLQPEDFATYYCQQGNTLPWTFGQGTKLEIK is less than 7%
## Result true

## Task API: query returns whether the binder falls strictly under 7% in Maximal downregulation (% Siglec-7 remaining). Query: S7AB-H8.36 (antibody, V domains shown) VH: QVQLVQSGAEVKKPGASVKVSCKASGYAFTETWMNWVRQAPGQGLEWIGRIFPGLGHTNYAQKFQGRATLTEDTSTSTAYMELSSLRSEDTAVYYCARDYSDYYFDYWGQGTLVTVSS VL: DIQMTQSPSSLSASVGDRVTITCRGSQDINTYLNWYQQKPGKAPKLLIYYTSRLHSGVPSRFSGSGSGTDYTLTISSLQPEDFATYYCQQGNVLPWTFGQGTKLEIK
## Result false

## Task Decide: Maximal downregulation (% Siglec-7 remaining) of S7AB-H8.44 (antibody, V domains shown) VH: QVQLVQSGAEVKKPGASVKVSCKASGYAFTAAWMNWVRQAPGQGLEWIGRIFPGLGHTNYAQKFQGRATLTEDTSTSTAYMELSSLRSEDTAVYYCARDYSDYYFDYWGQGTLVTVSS VL: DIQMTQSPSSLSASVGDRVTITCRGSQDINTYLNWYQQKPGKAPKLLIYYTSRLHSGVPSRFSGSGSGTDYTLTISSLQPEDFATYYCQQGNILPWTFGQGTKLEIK strictly below 7%?
## Result true

## Task Find out if reported Maximal downregulation (% Siglec-7 remaining) for S7AB-H8.43 (antibody, V domains shown, also called S7AB-H.43) VH: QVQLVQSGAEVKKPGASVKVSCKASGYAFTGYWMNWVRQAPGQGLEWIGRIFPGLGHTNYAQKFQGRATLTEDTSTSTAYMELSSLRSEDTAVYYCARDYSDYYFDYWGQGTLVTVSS VL: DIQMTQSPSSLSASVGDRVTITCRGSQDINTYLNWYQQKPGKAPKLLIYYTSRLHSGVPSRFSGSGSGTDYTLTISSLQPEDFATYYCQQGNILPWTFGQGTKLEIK is less than 7%
## Result false
